- Test system: CP335
- test: qHTS profiling for inhibitors of Plasmodium falciparum proliferation (AID 504749); note: nearly all actives have a fitted effect of over 60% in size
- settings: P. falciparum in erythrocytes, SYBR Green DNA, 72 h; series mostly up to 28.7 µM
- Protocol: NIH National Institute of Allergy and Infectious Diseases [NIAID] NIH Chemical Genomics Center [NCGC] […] Because mature erythrocytes lack DNA, only Plasmodium-derived DNA is detected. NCGC Assay Protocol Summary: The SYBR Green viability assay was adapted from a method described previously (Plouffe et al., 2008). […] The following morning, fluorescence intensity at 485(14) nm excitation and 535(25) nm emission wavelengths was measured on an EnVision (Perkin Elmer) plate reader. […]
Inconclusive results are not listed. Active and inactive are the calls of the source. Calls come from the whole dose curve; as a rule, active = well fitted inhibition curve with a large enough effect; inconclusive = small, poorly fitted or top-dose-only effect; inactive = flat fitted curve, though single readings scatter.
experimentalEndpoint: outcome

INSERT INTO results (compound, readoutvalue) VALUES
  ('C[Se]CCC(N)C(=O)O (stereo not drawn)', 'inactive'),
  ('Cc1nc(Nc2ncc(C(=O)Nc3c(C)cccc3Cl)s2)cc(N2CCN(CCO)CC2)n1', 'inactive'),
  ('CS(=O)(=O)OCCCCOS(C)(=O)=O', 'inactive');

Data provenance: PubChem BioAssay (NCATS)
